inhibition (INH) by entry:
Assay: Antioxidant activity assessed as DPPH radical scavenging activity at 0.125 mM after 30 mins
Assay type: physicochemical
Conditions: 0.5 h, 125 µM
Lab book: enter the figure in %, no units written.

What does the record list as inhibition (INH) for O=C(/C=C/c1ccc(O)c(O)c1/C(=C/c1ccc(O)c(O)c1)C(=O)O[C@@H](Cc1ccc(O)c(O)c1)C(=O)O)O[C@@H](Cc1ccc(O)c(O)c1)C(=O)O ?
8.1

Suppose we examine the compound O=C(/C=C/c1ccc(O)c2c1[C@@H](C(=O)O[C@@H](Cc1ccc(O)c(O)c1)C(=O)O)[C@H](c1ccc(O)c(O)c1)O2)O[C@@H](Cc1ccc(O)c(O)c1)C(=O)O ; what inhibition (INH) value has been reported?
64.9

Data request, read-out inhibition (INH), for O=C(/C=C/c1ccc(O)c2c1[C@@H](C(=O)O[C@H](Cc1ccc(O)c(O)c1)C(=O)O)[C@H](c1ccc(O)c(O)c1)O2)O[C@H](Cc1ccc(O)c(O)c1)C(=O)O
60.2

Value lookup for inhibition (INH); key = O=C1O[C@H]([C@@H](O)CO)C(O)=C1O
31.8
